Reported Ki values for a set of compounds
# Tested On: human Adenosine A2a receptor (Homo sapiens, UniProt P29274)
# Construct: expressed in transfected cells; host or cells: CHO cell membranes
# Sequence (P29274 whole entry): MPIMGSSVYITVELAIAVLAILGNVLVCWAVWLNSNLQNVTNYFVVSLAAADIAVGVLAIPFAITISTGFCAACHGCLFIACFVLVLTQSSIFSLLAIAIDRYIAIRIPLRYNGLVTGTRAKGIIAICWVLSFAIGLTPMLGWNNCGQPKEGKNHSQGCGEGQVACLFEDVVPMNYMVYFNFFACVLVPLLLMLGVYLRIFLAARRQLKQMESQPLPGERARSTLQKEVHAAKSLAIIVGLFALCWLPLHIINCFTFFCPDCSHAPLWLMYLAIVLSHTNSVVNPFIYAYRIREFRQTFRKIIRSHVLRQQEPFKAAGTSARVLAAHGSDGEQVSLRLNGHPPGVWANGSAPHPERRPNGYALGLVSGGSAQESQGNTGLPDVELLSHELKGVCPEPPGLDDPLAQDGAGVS
# Test Details: Adenosine receptor TR-FRET binding assay (CA200645 displacement), A2a
# Measurement Setup: 100 nM CA200645, CHO cell membranes, 2 hours at room temperature
Counter-ions that a name gives are not always drawn.

{"Compound": "Cc1cc(-c2c(-c3cccc(C#N)c3)nn3ccc(C(=O)NCC4(C)CCCNC4)nc23)cc(Cl)n1 (stereo not shown) [Example 7.18]", "Quantity Unit": "nM", "Ki": 1}
{"Compound": "Fc1cccc(-c2cc3nc(NCc4ccccc4)ccn3n2)c1 [Example 66]", "Quantity Unit": "nM", "Ki": 44.7}
{"Compound": "Cc1cc(-c2c(-c3cccc(C#N)c3)nn3ccc(N4CCC5(CC4)CNC(=O)C5)nc23)cc(C)n1 [Example 105]", "Quantity Unit": "nM", "Ki": 127}
{"Compound": "Cc1cc(-c2c(-c3cccc(C#N)c3)nn3ccc(CN4CCNCC4)nc23)cc(C)n1 [Example 20.1, trifluoroacetate]", "Quantity Unit": "nM", "Ki": 116}
